# tested target: ATP-dependent translocase ABCB1 (Homo sapiens, UniProt P08183)
# Sequence (P08183 whole entry): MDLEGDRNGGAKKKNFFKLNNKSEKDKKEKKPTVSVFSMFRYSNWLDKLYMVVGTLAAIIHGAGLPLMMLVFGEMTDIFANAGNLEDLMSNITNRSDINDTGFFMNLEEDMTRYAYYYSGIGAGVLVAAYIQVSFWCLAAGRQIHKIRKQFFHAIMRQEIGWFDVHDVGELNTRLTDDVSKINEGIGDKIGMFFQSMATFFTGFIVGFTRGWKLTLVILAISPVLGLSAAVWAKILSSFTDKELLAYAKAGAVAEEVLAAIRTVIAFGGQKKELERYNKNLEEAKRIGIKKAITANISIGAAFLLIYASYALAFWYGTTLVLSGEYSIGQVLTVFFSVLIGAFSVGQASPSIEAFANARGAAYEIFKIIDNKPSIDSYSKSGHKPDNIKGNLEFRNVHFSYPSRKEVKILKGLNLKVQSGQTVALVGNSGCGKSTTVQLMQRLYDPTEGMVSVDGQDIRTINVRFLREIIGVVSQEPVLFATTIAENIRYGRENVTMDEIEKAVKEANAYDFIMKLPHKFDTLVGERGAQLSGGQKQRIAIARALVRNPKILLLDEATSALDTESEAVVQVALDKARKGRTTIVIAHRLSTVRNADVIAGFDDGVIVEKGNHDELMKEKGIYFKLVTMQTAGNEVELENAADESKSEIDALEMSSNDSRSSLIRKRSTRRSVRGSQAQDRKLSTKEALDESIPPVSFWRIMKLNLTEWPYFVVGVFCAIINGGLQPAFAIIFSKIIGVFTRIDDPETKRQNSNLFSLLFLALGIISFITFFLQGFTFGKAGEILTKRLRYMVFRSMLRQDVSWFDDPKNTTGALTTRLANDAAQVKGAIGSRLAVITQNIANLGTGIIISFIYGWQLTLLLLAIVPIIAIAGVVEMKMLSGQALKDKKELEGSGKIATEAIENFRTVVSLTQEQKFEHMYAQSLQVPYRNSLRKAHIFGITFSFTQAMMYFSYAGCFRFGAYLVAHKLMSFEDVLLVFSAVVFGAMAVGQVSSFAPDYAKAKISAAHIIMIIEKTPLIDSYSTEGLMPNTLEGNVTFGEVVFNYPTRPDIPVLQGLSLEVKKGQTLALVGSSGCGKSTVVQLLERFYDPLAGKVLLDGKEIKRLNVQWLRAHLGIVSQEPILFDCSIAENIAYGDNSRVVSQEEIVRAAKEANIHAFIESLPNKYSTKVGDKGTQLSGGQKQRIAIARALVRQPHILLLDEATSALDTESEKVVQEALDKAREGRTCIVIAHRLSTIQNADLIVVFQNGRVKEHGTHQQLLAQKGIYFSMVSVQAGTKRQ
# protocol notes: Inhibition of Pgp in multidrug-resistant human 2780AD cells assessed as calcein accumulation at 2.5 ug/mL relative to control
# Format: cell-based
# Design: scale not given: the % may be the effect or the level left
# condition notes: a2780 adr
Measured Activity accompanies every entry in the list below.
The answer is to be given in %; state only the numeric part.

C=C1[C@@H](OC(C)=O)CC[C@@]2(C)[C@@H](O)[C@H](OC(C)=O)C3=C(C)C[C@H](OC(C)=O)[C@@H]([C@@H](OC(C)=O)[C@H]12)C3(C)C: 101

Q) Activity of C=C1[C@@H](OC(C)=O)CC[C@@]2(C)C[C@H](OC(=O)/C=C/c3ccccc3)C3=C(C)C[C@H](OC(C)=O)[C@@H]([C@@H](OC(C)=O)[C@H]12)C3(C)C on ATP-dependent translocase ABCB1 (Homo sapiens, UniProt P08183)?
A) 123

Q) Enter reported Activity observed with ATP-dependent translocase ABCB1 (Homo sapiens, UniProt P08183) for C=C1[C@@H](OC(C)=O)C[C@H](O)[C@@]2(C)C[C@H](OC(C)=O)C3=C(C)C[C@H](OC(=O)C(C)C(C)O)[C@@H]([C@@H](OC(C)=O)[C@H]12)C3(C)C (some centres undefined)
A) 104

Q) // fetch ATP-dependent translocase ABCB1 (Homo sapiens, UniProt P08183) Activity for C=C1[C@@H](OC(C)=O)CC[C@@]2(C)C[C@H](OC(=O)/C=C/c3ccccc3)C3=C(C)C[C@H](OC(=O)/C=C/c4ccccc4)[C@@H]([C@@H](OC(C)=O)[C@H]12)C3(C)C
A) 80
